System: barnyardgrass (Echinochloa crus-galli L.)
Method: Test Example 1: foliar treatment, growth inhibition rate, barnyardgrass
Format: in vivo
Particulars: 31 g/ha active ingredient, visually observed 17th to 23rd day after application
Observable: Growth inhibition rate (%) Barnyardgrass
Respond numerically; units are % and should not be typed.

Some solved entries appear below for comparison.
Structure String	Growth inhibition rate (%) Barnyardgrass
C#CCOc1c(S(C)(=O)=O)ccc(C(=O)c2cnn(C)c2OC(=O)SCC)c1C	90
CCCOc1c(S(C)(=O)=O)ccc(C(=O)c2cnn(C)c2OC(=O)SCC)c1C	95
COC(=O)c1c(S(C)(=O)=O)ccc(C(=O)c2cnn(C)c2OC(=O)SC)c1C	95

In plain terms, CCOC(=O)c1c(S(C)(=O)=O)ccc(C(=O)c2cnn(CC)c2OC(=O)SCC)c1C has a documented Growth inhibition rate (%) Barnyardgrass of 98
